Target: Calcium/calmodulin-dependent protein kinase type 1D (Homo sapiens) (UniProt Q8IU85);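 also: reported figure is the mean inhibition of CAMK1D, from the GSK PKIS screening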
Sequence (Q8IU85 whole entry, looked up): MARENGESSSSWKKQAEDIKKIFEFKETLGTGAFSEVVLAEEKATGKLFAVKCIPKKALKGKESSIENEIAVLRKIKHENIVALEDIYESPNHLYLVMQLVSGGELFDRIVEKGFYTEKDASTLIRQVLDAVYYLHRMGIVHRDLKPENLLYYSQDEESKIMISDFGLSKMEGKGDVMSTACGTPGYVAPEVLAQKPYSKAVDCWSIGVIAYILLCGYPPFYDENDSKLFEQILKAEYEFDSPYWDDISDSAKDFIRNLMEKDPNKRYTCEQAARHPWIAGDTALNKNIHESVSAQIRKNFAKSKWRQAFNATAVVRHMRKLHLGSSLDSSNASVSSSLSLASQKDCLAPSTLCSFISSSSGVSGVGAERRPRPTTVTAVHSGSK
Conditions: at 0.1 µM
property.measured: inhibition (%)
# unit: % | format: bare number

Check out these entries, answers already filled in.
NS(=O)(=O)c1ccc(N/N=C2\C(=O)Nc3cccc(CCc4ccncc4)c32)cc1 : 0.4
CN(c1ccc(NC(=O)NCCN2CCOCC2)cc1)c1ccnc(Nc2ccc(CS(C)(=O)=O)cc2)n1 : -0.41
CNC(=O)c1ncccc1Nc1nc(Nc2cc3c(cc2OC)CCCN3C(=O)CN(C)C)nc2[nH]ccc12 : 1.94
COc1ccc2ncn(-c3cc(O[C@H](C)c4ccccc4C(F)(F)F)c(C(N)=O)s3)c2c1 : 0.14
O=C1Nc2ccccc2/C1=C1\CCc2cc(O)ccc21 : 1.02

(Q) Determine from records and report inhibition for O=C(O[C@H]1CN[C@H](C#Cc2cc3ncnc(Nc4ccc5c(ccn5Cc5cc(F)ccc5F)c4)c3s2)C1)N1CCOCC1
(A) 0.69

(Q) # return recorded inhibition for input Cc1ccc(-c2cc3c(NC(=O)C4CC4)ncnc3o2)cc1
(A) 0.92

(Q) Indicate the recorded inhibition value for this compound: CC1(C)CC(n2cnc(-c3ccc(F)cc3)c2-c2ccnc(N)n2)CC(C)(C)N1
(A) -0.53

* * *

Target: cAMP-dependent protein kinase catalytic subunit alpha (Homo sapiens) (UniProt P17612);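 also: mean percent inhibition of PKA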
Conditions: at 1 µM
Entries and their measured inhibition follow.
Lab book: enter the figure in %, no units written.

Below: 2 molecules and their reported inhibition.
Cc1c2ccc(N(C)c3ccnc(Nc4cccc(S(N)(=O)=O)c4)n3)cc2nn1C : -0.54
CS(=O)(=O)Nc1ccc(-c2ccc3c(NC(=O)C4CC4)n[nH]c3c2)cc1 : 1.85

(Q) Supply recorded inhibition for O=C(O[C@H]1CN[C@H](C#Cc2cc3ncnc(Nc4ccc(OCc5cccc(F)c5)c(Cl)c4)c3s2)C1)N1CCOCC1 here.
(A) 3.33

(Q) For the molecule CCOc1ccc2c(-c3ccnc(Nc4cc(OC)cc(C(F)(F)F)c4)n3)cnn2n1 , report inhibition.
(A) 3.91

(Q) Respond only with inhibition recorded for N#Cc1cccc(Nc2ncc(-c3ccccc3)o2)c1
(A) 1.68

* * *

Molecular target: Serine/threonine-protein kinase PAK 3 (Homo sapiens);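 also: reported percentage is a mean inhibition value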
Details: at 1 µM
property.measured: inhibition (%)
State just the number; it will be interpreted in %.

Sample records with inhibition:
Cc1cc(O)cc(C)c1/C=C/c1cncc(C(=O)OC(C)(C)C)c1 : 2.76
COc1cc(N2CCN(C(C)C)CC2)ccc1Nc1nc(Nc2cccc3ncccc23)c2cc[nH]c2n1 : -0.48
Cn1c(-c2nonc2N)nc2cnccc21 : 2.69

(Q) Tell us which inhibition value is on record for CC(C)c1ccc(-c2cc(-c3c[nH]nc3-c3ccccn3)ccn2)cc1
(A) 0.21

(Q) Could you please provide reported inhibition for COc1ccc2ncn(-c3cc(O[C@H](C)c4ccccc4C(F)(F)F)c(C(N)=O)s3)c2c1 ? Thanks!
(A) 0.02

(Q) Output inhibition of Cc1c2ccc(N(C)c3ccnc(Nc4cccc(S(N)(=O)=O)c4)n3)cc2nn1C
(A) 7.28

(Q) Respond only with inhibition recorded for CCS(=O)(=O)c1ccc(OC)c(Nc2ncc(-c3cccc(F)c3)o2)c1
(A) 9.2

(Q) Please report the measured inhibition for CS(=O)(=O)CCNCc1ccc(-c2ccc3ncnc(Nc4ccc(OCc5ccccc5)cc4)c3c2)o1
(A) 3.33
